Target: Serine/threonine-protein kinase VRK1 (Homo sapiens) (UniProt Q99986)
Sequence (Q99986 whole entry): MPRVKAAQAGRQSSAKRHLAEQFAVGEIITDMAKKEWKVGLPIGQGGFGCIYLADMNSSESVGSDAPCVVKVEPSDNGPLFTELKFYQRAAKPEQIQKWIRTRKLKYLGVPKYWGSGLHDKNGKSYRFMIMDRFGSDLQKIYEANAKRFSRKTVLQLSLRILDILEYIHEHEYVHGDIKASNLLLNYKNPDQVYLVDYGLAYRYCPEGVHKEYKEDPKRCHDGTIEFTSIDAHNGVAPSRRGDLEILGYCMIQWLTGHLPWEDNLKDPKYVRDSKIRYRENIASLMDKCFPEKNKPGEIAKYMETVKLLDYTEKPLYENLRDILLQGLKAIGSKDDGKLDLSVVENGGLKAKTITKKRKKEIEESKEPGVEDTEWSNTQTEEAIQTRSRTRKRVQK
metric.name: ΔTm (°C)
A number alone suffices; assume °C.

compound=Cc1cncc2cccc(S(=O)(=O)N3CCCNC[C@@H]3C)c12 readout_number=0.6
compound=N#C/C(=C\c1ccc(O)c(O)c1)C(=O)Nc1ccccc1 readout_number=0.2
compound=COc1ccc(COc2ccc(Cc3cnc(N)nc3N)cc2OC)cc1 readout_number=-0.2
compound=N#C/C(=C\c1ccc(O)c(O)c1)C(=O)NCc1ccccc1 readout_number=0.4
compound=Cn1cc(/C=C2/C(=O)Nc3ccc(S(N)(=O)=O)cc32)c2ccccc21 readout_number=1.6
compound=C/C(O)=C(\C#N)C(=O)Nc1cc(Br)ccc1Br readout_number=0
compound=COC1=C2C[C@@H](C)C[C@H](OC)[C@H](O)[C@@H](C)/C=C(\C)[C@H](OC(N)=O)[C@@H](OC)/C=C\C=C(/C)C(=O)NC(=CC1=O)C2=O readout_number=-0.1
compound=Cn1cc(C2=C(c3cn(CCCN)c4ccccc34)C(=O)NC2=O)c2ccccc21 readout_number=0.9

Request the reported ΔTm associated with COc1ccc(CNC(=O)Nc2ncc([N+](=O)[O-])s2)cc1
-0.5

Proceed to CC(C)(C)c1nc2c3ccc(F)cc3c3c(=O)[nH]ccc3c2[nH]1
1.1

Proceed to Nc1n[nH]c2nc3ccccc3nc12 [QUINOXALINE1]
0.2

Proceed to COc1cc(/C=C/C(=O)CC(=O)/C=C/c2ccc(O)c(OC)c2)ccc1O [CURCUMIN]
1

Proceed to O=C(O)c1cc(N(Cc2ccccc2O)Cc2cc(O)ccc2O)ccc1O [LAVENDUSTIN A]
0.3

---

ΔTm data for Serine/threonine-protein kinase PAK 4 (Homo sapiens) follow.
A number alone suffices; assume °C.

compound=CCOc1cc2ncnc(Nc3cccc(Br)c3)c2cc1OCC readout_number=0.4
compound=Cc1[nH]c(/C=C2\C(=O)Nc3ccc(S(=O)(=O)N(C)c4cccc(Cl)c4)cc32)c(C)c1C(=O)N1CCN(C)CC1 readout_number=1.4
compound="O=c1ccc2ccc(O)c(O)c2o1 [DAPHNETIN]" readout_number=0
compound=CCN(CC)CCNC(=O)c1c(C)[nH]c(/C=C2\C(=O)Nc3ccc(F)cc32)c1C readout_number=3.3
compound=CN(c1cccnc1)c1cc2c(Nc3ccc(F)c(Cl)c3)c(C#N)cnc2cn1 readout_number=2.6

Request the reported ΔTm associated with COC(=O)[C@]1(O)C[C@@H]2O[C@@]1(C)n1c3ccccc3c3c4c(c5c6ccccc6n2c5c31)C(=O)NC4 (single isomer, unassigned)
3.9

Proceed to NC(=O)c1ccc2[nH]c(-c3ccc(Oc4ccc(Cl)cc4)cc3)nc2c1
1.3

Proceed to COc1ccc(CNC(=O)Nc2ncc([N+](=O)[O-])s2)cc1
0.4

Proceed to CC(C)(C)c1cc(C=C2C(=O)C=CC2=O)cc(C(C)(C)C)c1O
1.5

Proceed to C[C@@H]1C[C@H]2O[C@@H]2/C=C\C=C\C(=O)Cc2c(Cl)c(O)cc(O)c2C(=O)O1 [RADICICOL]
1.3

---

Target: Serine/threonine-protein kinase 4 (Homo sapiens) (UniProt Q13043)
Sequence (whole entry): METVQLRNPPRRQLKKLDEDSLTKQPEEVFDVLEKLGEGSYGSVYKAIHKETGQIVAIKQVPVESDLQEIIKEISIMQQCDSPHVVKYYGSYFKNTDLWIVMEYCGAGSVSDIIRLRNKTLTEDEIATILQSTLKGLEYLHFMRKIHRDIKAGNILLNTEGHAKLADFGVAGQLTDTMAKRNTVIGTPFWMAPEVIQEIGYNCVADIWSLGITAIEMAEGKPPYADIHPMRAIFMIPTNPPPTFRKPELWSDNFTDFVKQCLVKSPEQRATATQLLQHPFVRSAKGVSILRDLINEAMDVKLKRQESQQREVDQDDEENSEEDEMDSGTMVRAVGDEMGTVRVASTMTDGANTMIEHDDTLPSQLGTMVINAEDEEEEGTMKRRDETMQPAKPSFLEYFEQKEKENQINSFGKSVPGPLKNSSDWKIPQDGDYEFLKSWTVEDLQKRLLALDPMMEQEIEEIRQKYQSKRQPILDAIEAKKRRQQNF
// NB: equality with 0.2 °C counts as Not fulfilled; only ΔTm strictly below is Fulfilled

molecule="Brc1c(Br)c(Br)c2[nH]nnc2c1Br [TETRABROMOBENZOTRIAZOLE]" class_name="Not fulfilled"
molecule=COc1cccc(-c2cc(=O)c3ccccc3o2)c1N class_name=Fulfilled
molecule=O=C1Nc2ccc(I)cc2/C1=C1/Nc2ccccc2/C1=N\O class_name="Not fulfilled"

Check if ΔTm falls below 0.2 °C for Cn1cc(C2=C(c3cn(CCCSC(=N)N)c4ccccc34)C(=O)NC2=O)c2ccccc21 .
Not fulfilled

Proceed to NC(=O)c1ccc2[nH]c(-c3ccc(Oc4ccc(Cl)cc4)cc3)nc2c1
Fulfilled

Proceed to CC[C@H](CO)Nc1nc(NCc2ccccc2)c2ncn(C(C)C)c2n1 [SELICICLIB]
Not fulfilled
